Provide the recorded Ki for the entries that follow.

Identify the measured Ki of N=C(N)c1ccc2nc(-c3ccc4ccccc4c3O)[nH]c2c1 for UniProt P00742.
Sequence (P00742 41-179 limits assumed): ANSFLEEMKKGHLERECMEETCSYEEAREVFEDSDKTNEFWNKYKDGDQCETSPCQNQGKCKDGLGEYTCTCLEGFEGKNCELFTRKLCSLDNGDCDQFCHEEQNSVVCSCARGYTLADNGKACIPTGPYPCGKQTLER
Sequence (P00742 235-488 limits assumed): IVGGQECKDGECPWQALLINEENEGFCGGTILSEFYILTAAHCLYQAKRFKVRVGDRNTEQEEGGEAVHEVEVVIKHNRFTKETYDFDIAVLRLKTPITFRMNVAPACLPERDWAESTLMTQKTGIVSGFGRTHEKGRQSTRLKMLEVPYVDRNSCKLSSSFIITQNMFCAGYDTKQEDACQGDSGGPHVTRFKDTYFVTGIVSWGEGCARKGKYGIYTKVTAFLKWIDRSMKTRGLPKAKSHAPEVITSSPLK
9.9 µM

Checklist item: Ki tested on UniProt P00742, entry N=C(N)c1ccc2nc(-c3cc([N+](=O)[O-])ccc3O)[nH]c2c1 , value?
7.8 µM

Enter reported Ki observed with UniProt P00742 for Cc1cccc(-c2nc3cc(C(=N)N)ccc3[nH]2)c1O
10 µM

Hi! What's the reported Ki for COc1ccc(O)c(-c2nc3ccc(C(=N)N)cc3[nH]2)c1 on UniProt P00742?
8.9 µM
